# Test system: KB-8-5 cells
# protocol.description: MTS cytotoxicity test with KB-8-5 cells (moderate P-glycoprotein)
# Type: cell-based, human
# assay.conditions: KB 8.5 cells, mean of 2 experiments
test.readout: IC50 (nM)
One number for each entry, in nM.

compound | IC50, nM
CNCCCOc1cc(F)c(-c2c(Cl)nc(-c3cnccn3)nc2C2CCCCCC2)c(F)c1.O=C(O)C(F)(F)F [Example 33a] | 7.5
CN(C)CCCOc1cc(F)c(-c2c(Cl)nc(-c3cnccn3)nc2NCC(F)(F)F)c(F)c1.Cl [Example 25a] | 24

// below: IC50 requested for another compound
Which IC50 value is on record for CNCCCOc1cc(F)c(-c2c(Cl)nc(-c3cnccn3)nc2N[C@@H](C)C(F)(F)F)c(F)c1.Cl [Example 24a] ?
24

---

Consider the following compounds; for each one, report its Ratio.
# Test system: HL-60/ADR cells
# protocol.description: MTS cytotoxicity test with HL-60/ADR cells (MRP1)
# Type: cell-based, human
# assay.conditions: IC50 on HL-60/ADR cells/IC50 on HL-60 cells
One number for each entry.

Below: 4 compounds and their reported Ratio.
compound | Ratio
CN(C)CCCOc1cc(F)c(-c2c(Cl)nc(-c3ccc4ccccc4n3)nc2NCC(F)(F)F)c(F)c1 [Example 30] | 0.8
CN(C)CCCOc1cc(F)c(-c2c(Cl)nc(N(C)C#N)nc2NCC(F)(F)F)c(F)c1 [Example 19] | 0.9
CNc1nc(Cl)c(-c2c(F)cc(OCCCN(C)C)cc2F)c(NCC(F)(F)F)n1.O=C(O)C(F)(F)F [Example 20a] | 0.9
CNCCCOc1cc(F)c(-c2c(Cl)nc(-c3cnccn3)nc2N[C@@H](C)C(F)(F)F)c(F)c1.Cl [Example 24a] | 1.0

Each compound below has a reported value. Please supply its Ratio.
1. CNCCCOc1cc(F)c(-c2c(Cl)nc(-n3cccn3)nc2N[C@@H](C)C(F)(F)F)c(F)c1.Cl [Example 32a]
2. O=C1c2c(O)ccc(O)c2C(=O)c2c(NCCNCCO)ccc(NCCNCCO)c21 [Mitoxantrone, reference compound]
3. CN(C)CCCOc1cc(F)c(-c2c(Cl)nc(-c3cnccn3)nc2NCC(F)(F)F)c(F)c1.Cl [Example 25a]
4. CNCCCOc1cc(F)c(-c2c(Cl)nc(-c3ccccn3)nc2N[C@@H](C)C(F)(F)F)c(F)c1.Cl [Example 29a]
5. CNCCCOc1cc(F)c(-c2c(Cl)nc(-c3cnccn3)nc2C2CCCCCC2)c(F)c1.O=C(O)C(F)(F)F [Example 33a]
6. CC[C@]1(O)C[C@H]2CN(CCc3c([nH]c4ccccc34)[C@@](C(=O)OC)(c3cc4c(cc3OC)N(C=O)[C@H]3[C@@](O)(C(=O)OC)[C@H](OC(C)=O)[C@]5(CC)C=CCN6CC[C@]43[C@@H]65)C2)C1 [Vincristine, reference compound]

[0.8, 15, 0.9, 1.0, 0.9, 9.6]

---

Consider the following compounds; for each one, report its IC50.
# Tested on: S1 cells
# protocol.description: MTS cytotoxicity test with S1 cells
# Format: cell-based, human
# assay.conditions: Homo sapiens, mean of 2 experiments
One number for each entry, in nM.

Below: 3 compounds and their reported IC50.
compound | IC50 (nM)
CC[C@]1(O)C[C@H]2CN(CCc3c([nH]c4ccccc34)[C@@](C(=O)OC)(c3cc4c(cc3OC)N(C=O)[C@H]3[C@@](O)(C(=O)OC)[C@H](OC(C)=O)[C@]5(CC)C=CCN6CC[C@]43[C@@H]65)C2)C1 [Vincristine, reference compound] | 14
CN(C)CCCOc1cc(F)c(-c2c(Cl)nc(N(C)C#N)nc2NCC(F)(F)F)c(F)c1 | 88
COc1cccc2c1C(=O)c1c(O)c3c(c(O)c1C2=O)C[C@@](O)(C(=O)CO)C[C@@H]3O[C@H]1C[C@H](N)[C@H](O)[C@H](C)O1 [Doxorubicin, reference compound] | 61

Each compound below has a reported value. Please supply its IC50.
1. CN(C)CCCOc1cc(F)c(-c2c(Cl)nc(-c3ccc4ccccc4n3)nc2NCC(F)(F)F)c(F)c1
2. CNc1nc(Cl)c(-c2c(F)cc(OCCCN(C)C)cc2F)c(NCC(F)(F)F)n1.O=C(O)C(F)(F)F [Example 20a, trifluoroacetic acid salt]
3. CNCCCOc1cc(F)c(-c2c(Cl)nc(-c3ccccn3)nc2N[C@@H](C)C(F)(F)F)c(F)c1.Cl [Example 29a]

1. 138
2. 95
3. 7.9

---

# Tested on: HL-60 cells
# protocol.description: MTS cytotoxicity test with HL-60 cells
# Format: cell-based, human
# assay.conditions: Homo sapiens, mean of 2 experiments
test.readout: log10(IC50) (log10 of the value in nM)
Plainly stated, the numbers are log10 of IC50 given in nM.

Below: 5 compounds and their reported log10(IC50).
compound | log10(IC50)
CC(=O)O[C@H]1C(=O)[C@@]2(C)[C@H]([C@H](OC(=O)c3ccccc3)[C@]3(O)C[C@H](OC(=O)[C@H](O)[C@@H](NC(=O)c4ccccc4)c4ccccc4)C(C)=C1C3(C)C)[C@]1(OC(C)=O)CO[C@@H]1C[C@@H]2O [Paclitaxel, reference compound] | 0.48
CN(C)CCCOc1cc(F)c(-c2c(Cl)nc(N(C)C#N)nc2NCC(F)(F)F)c(F)c1 [Example 19] | 1.82
O=C1c2c(O)ccc(O)c2C(=O)c2c(NCCNCCO)ccc(NCCNCCO)c21 [Mitoxantrone, reference compound] | 1.23
CNCCCOc1cc(F)c(-c2c(Cl)nc(-c3ccccn3)nc2N[C@@H](C)C(F)(F)F)c(F)c1.Cl [Example 29a] | 0.84
CNc1nc(Cl)c(-c2c(F)cc(OCCCN(C)C)cc2F)c(NCC(F)(F)F)n1.O=C(O)C(F)(F)F [Example 20a, trifluoroacetic acid salt] | 1.86

// below: log10(IC50) requested for another compound
Which log10(IC50) value is on record for CNCCCOc1cc(F)c(-c2c(Cl)nc(-n3cccn3)nc2N[C@@H](C)C(F)(F)F)c(F)c1.Cl [Example 32a] ?
0.41

---

# Test system: S1 cells
# protocol.description: MTS cytotoxicity test with S1 cells
# Assay type: cell-based, human
# assay.conditions: Homo sapiens, mean of 2 experiments
test.readout: IC50
Please state the value followed by its unit.

compound | IC50
CC(=O)O[C@H]1C(=O)[C@@]2(C)[C@H]([C@H](OC(=O)c3ccccc3)[C@]3(O)C[C@H](OC(=O)[C@H](O)[C@@H](NC(=O)c4ccccc4)c4ccccc4)C(C)=C1C3(C)C)[C@]1(OC(C)=O)CO[C@@H]1C[C@@H]2O [Paclitaxel, reference compound] | 4.2 nM
CNCCCOc1cc(F)c(-c2c(Cl)nc(-n3cccn3)nc2N[C@@H](C)C(F)(F)F)c(F)c1.Cl [Example 32a] | 9.9 nM

// below: IC50 requested for another compound
Provide value of IC50 for this record tested with S1 cells: O=C1c2c(O)ccc(O)c2C(=O)c2c(NCCNCCO)ccc(NCCNCCO)c21 [Mitoxantrone, reference compound]
25 nM

---

Consider the following compounds; for each one, report its IC50.
# System: HL-60 cells
# protocol.description: MTS cytotoxicity test with HL-60 cells
# Format: cell-based, human
# assay.conditions: Homo sapiens, mean of 2 experiments
# From the text: Human cancer cell lines, unless otherwise noted, are obtained from the American Type Culture Collection (Rockville, Md.). […] After three days of culture with test compounds (day 5 overall), the MTS assay is done on all wells of the experimental plates. The absorbance values of the quadruplicate sample wells are averaged and divided by the average of the “time 0” values. […]
Answers are plain numbers, in nM.

Below: 2 compounds and their reported IC50.
compound | IC50, nM
COc1cccc2c1C(=O)c1c(O)c3c(c(O)c1C2=O)C[C@@](O)(C(=O)CO)C[C@@H]3O[C@H]1C[C@H](N)[C@H](O)[C@H](C)O1 [Doxorubicin, reference compound] | 40
CC[C@]1(O)C[C@H]2CN(CCc3c([nH]c4ccccc34)[C@@](C(=O)OC)(c3cc4c(cc3OC)N(C=O)[C@H]3[C@@](O)(C(=O)OC)[C@H](OC(C)=O)[C@]5(CC)C=CCN6CC[C@]43[C@@H]65)C2)C1 [Vincristine, reference compound] | 2.5

// below: IC50 requested for another compound
Which IC50 value is on record for CN(C)CCCOc1cc(F)c(-c2c(Cl)nc(-c3ccc4ccccc4n3)nc2NCC(F)(F)F)c(F)c1 ?
88

---

# Test system: KB-V1 cells
# protocol.description: MTS cytotoxicity test with KB-V1 cells (very high P-glycoprotein)
# Assay type: cell-based, human
# assay.conditions: Homo sapiens, KB-V1; KB VI cells, mean of 2 experiments
# Text: Human cancer cell lines, unless otherwise noted, are obtained from the American Type Culture Collection (Rockville, Md.). […] After three days of culture with test compounds (day 5 overall), the MTS assay is done on all wells of the experimental plates. The absorbance values of the quadruplicate sample wells are averaged and divided by the average of the “time 0” values. […]
test.readout: log10 IC50 (log10 of the value in nM)
Plainly stated, the numbers are log10 of IC50 given in nM.

Below: 5 molecules and their reported log10 IC50.
molecule | measured.on | log10 IC50
CNc1nc(Cl)c(-c2c(F)cc(OCCCN(C)C)cc2F)c(NCC(F)(F)F)n1.O=C(O)C(F)(F)F [Example 20a, trifluoroacetic acid salt] | KB-V1 cells | 2.15
CC[C@]1(O)C[C@H]2CN(CCc3c([nH]c4ccccc34)[C@@](C(=O)OC)(c3cc4c(cc3OC)N(C=O)[C@H]3[C@@](O)(C(=O)OC)[C@H](OC(C)=O)[C@]5(CC)C=CCN6CC[C@]43[C@@H]65)C2)C1 [Vincristine, reference compound] | KB-V1 cells | 3.31
CNCCCOc1cc(F)c(-c2c(Cl)nc(-n3cccn3)nc2N[C@@H](C)C(F)(F)F)c(F)c1.Cl [Example 32a] | KB-V1 cells | 2.76
O=C1c2c(O)ccc(O)c2C(=O)c2c(NCCNCCO)ccc(NCCNCCO)c21 [Mitoxantrone, reference compound] | KB-V1 cells | 2.60
CN(C)CCCOc1cc(F)c(-c2c(Cl)nc(N(C)C#N)nc2NCC(F)(F)F)c(F)c1 | KB-V1 cells | 2.25

Which log10 IC50 value is on record for CC(=O)O[C@H]1C(=O)[C@@]2(C)[C@H]([C@H](OC(=O)c3ccccc3)[C@]3(O)C[C@H](OC(=O)[C@H](O)[C@@H](NC(=O)c4ccccc4)c4ccccc4)C(C)=C1C3(C)C)[C@]1(OC(C)=O)CO[C@@H]1C[C@@H]2O [Paclitaxel, reference compound] ?
3.30
